- target-system: human IGF-I receptor (human, UniProt P08069 31-1367)
- Sequence (P08069 31-1367 limits assumed): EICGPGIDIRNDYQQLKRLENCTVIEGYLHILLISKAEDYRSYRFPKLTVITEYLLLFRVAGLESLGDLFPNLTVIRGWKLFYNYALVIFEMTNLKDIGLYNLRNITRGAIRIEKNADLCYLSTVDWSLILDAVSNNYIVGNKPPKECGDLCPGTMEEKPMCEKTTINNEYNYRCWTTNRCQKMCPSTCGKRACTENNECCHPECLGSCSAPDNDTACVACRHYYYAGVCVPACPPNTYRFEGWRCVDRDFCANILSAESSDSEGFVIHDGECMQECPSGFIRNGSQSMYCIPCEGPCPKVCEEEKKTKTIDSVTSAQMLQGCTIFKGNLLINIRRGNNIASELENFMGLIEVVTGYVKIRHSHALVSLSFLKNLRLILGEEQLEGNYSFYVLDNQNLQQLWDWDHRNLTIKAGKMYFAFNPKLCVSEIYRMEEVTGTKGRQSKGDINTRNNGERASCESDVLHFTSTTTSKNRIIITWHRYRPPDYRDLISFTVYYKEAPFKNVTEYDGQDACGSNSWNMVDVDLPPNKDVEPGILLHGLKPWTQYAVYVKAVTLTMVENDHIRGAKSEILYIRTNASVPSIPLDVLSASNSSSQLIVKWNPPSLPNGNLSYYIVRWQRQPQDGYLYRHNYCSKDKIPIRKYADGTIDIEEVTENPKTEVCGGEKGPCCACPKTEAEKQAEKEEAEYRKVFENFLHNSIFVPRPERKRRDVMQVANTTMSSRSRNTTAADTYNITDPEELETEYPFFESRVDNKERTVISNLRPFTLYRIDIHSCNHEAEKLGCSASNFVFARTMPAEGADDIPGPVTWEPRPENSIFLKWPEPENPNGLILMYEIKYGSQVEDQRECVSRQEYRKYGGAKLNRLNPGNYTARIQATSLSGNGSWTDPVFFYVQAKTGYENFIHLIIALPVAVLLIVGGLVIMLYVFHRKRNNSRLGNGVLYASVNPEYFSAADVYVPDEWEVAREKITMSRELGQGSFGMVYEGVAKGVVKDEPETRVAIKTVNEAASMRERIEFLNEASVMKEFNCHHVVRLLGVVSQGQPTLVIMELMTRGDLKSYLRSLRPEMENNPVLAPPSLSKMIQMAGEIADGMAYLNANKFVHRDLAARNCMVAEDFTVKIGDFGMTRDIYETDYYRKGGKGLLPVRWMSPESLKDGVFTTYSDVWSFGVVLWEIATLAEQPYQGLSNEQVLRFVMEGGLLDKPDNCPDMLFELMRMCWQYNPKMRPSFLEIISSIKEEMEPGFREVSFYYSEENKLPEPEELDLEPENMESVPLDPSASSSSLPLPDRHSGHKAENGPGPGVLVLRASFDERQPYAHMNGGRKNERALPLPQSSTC
- protocol-summary: cell-based or functional assay
property-measured: Proliferation activity on human myoblast cells (%), 0.5 nM, Experiment 1

1) anti-IGF-I receptor humanized antibody R11-16C (antibody, human IgG4, V domains shown, also called R11-16C antibody; R11-16VH + R11-16VL-C36A) VH: QVQLVQPGAELVKPGASVKVSCKAPGYTFTSYWMHWVRQAPGQGLEWIGETNPSNSVTNYNEKFKSKATLTVDTSTSTVYMELSSLRSEDTAVYYCTIGRGRGFAYWGQGTLVTVSS VL: DIQMTQSPSSLSASVGDRVTITCRASQNINFWLSWAQQKPGKAPKLLIYKASNLHTGVPSRFSGSGSGTDFTFTISSLQPEDIATYYCLQGQSYPYTFGQGTKLEIK = 178
2) anti-IGF-I receptor humanized antibody R11-16D (antibody, human IgG4, V domains shown, also called R11-16D antibody; R11-16VH + R11-16VL-C36S) VH: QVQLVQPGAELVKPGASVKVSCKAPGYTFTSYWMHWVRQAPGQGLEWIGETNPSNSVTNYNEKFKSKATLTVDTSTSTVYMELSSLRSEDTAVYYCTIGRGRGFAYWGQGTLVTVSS VL: DIQMTQSPSSLSASVGDRVTITCRASQNINFWLSWSQQKPGKAPKLLIYKASNLHTGVPSRFSGSGSGTDFTFTISSLQPEDIATYYCLQGQSYPYTFGQGTKLEIK = 160
3) anti-IGF-I receptor humanized antibody R11-16E (antibody, human IgG4, V domains shown, also called R11-16E antibody; R11-16VH + R11-16VL-C36F) VH: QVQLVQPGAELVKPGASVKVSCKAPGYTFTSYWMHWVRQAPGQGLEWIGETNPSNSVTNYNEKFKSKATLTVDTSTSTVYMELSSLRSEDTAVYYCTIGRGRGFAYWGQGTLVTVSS VL: DIQMTQSPSSLSASVGDRVTITCRASQNINFWLSWFQQKPGKAPKLLIYKASNLHTGVPSRFSGSGSGTDFTFTISSLQPEDIATYYCLQGQSYPYTFGQGTKLEIK = 166
4) anti-IGF-I receptor humanized antibody R11-16B (antibody, human IgG4, V domains shown, Heavy chain constant region: human IgG4 S228P variant; Expressed in Expi293, protein A purified; also called R11-16B antibody; R11-16VH + R11-16VL-C36Y) VH: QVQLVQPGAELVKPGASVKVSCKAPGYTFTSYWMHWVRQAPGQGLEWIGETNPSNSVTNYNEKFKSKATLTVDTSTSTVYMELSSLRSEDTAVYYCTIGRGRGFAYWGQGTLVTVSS VL: DIQMTQSPSSLSASVGDRVTITCRASQNINFWLSWYQQKPGKAPKLLIYKASNLHTGVPSRFSGSGSGTDFTFTISSLQPEDIATYYCLQGQSYPYTFGQGTKLEIK = 164
5) anti-IGF-I receptor humanized antibody R11-16F (antibody, human IgG4, V domains shown, also called R11-16F antibody; R11-16VH + R11-16VL-C36) VH: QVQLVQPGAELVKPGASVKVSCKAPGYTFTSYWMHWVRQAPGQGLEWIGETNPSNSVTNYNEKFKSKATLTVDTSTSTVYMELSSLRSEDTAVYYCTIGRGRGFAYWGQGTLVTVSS VL: DIQMTQSPSSLSASVGDRVTITCRASQNINFWLSWCQQKPGKAPKLLIYKASNLHTGVPSRFSGSGSGTDFTFTISSLQPEDIATYYCLQGQSYPYTFGQGTKLEIK = 161
